src = patent US20250027068

- tgt: pooled human IgG
assayEndpoint: Enzyme Activity Endpoint Assay (purified): Fc (ng/µL)
One number for each entry, in ng/µL.

protein | recordedValue
PRT-151 (protein) MANQEIRYSEVTPYHVTSVWTKGVTPPANFTQGEDVFHAPYVANQGWYDITKTFNGKDDLLCGAATAGNMLHWWFDQNKDQIKRYLEEHPDKQKINFNGEQMFDVKEAIDTKNHQLDSKLFEYFKEKAFPYLSTKHLGVFPDHVIDMFINGYRLSLTNHGPTPVKRQTKDPRGGIFDAVFGRGDSTKLLTSRHDFKEKNLKEISDLIKKELTEGKALGLSHTYANVRINHVINLWGADFDSNGNLKAIYVTDSDSNASIGMKKYFVGVNSAGKVAISAKEIKEDNIGAQVLGLFTLSTGQKSWNKTN | 137

Here's the next entry for you.
[ask] Give the measured Enzyme Activity Endpoint Assay (purified): Fc of PRT-128 (protein) MRNATEAYAKEVPKQITSVWTKGVTPPTPEQFRYNNEDVIHAPYLANQGWYDITKTFNGKDNLLCGAATAGNMLHWWFDQNKTEIEAYLSKHPEKQKIIFNNQELFDLKAAIDTKDSQTNSQLFNYFRDKAFPNLSARQLGVMPDLVLDMFINGYYLNVFKTQSTDVNRPYQDKDKRGGIFDAVFTRGDQTTLLTARHDLKNKTLNDISTLIKQELTEGKALALSHTYANVSISHVINLWGADFNAEGNLEAIYVTDSDANASIGMKKYFVGVNAHGKVAISAKKIEGENIGAQVLGLFTLSSGKDIWQKLS .
[reply] 151
